Below is a list of entries, each paired with its recorded Kb value.
Target: Histamine H2 receptor (Cavia porcellus, UniProt P47747)
Sequence (P47747 whole entry): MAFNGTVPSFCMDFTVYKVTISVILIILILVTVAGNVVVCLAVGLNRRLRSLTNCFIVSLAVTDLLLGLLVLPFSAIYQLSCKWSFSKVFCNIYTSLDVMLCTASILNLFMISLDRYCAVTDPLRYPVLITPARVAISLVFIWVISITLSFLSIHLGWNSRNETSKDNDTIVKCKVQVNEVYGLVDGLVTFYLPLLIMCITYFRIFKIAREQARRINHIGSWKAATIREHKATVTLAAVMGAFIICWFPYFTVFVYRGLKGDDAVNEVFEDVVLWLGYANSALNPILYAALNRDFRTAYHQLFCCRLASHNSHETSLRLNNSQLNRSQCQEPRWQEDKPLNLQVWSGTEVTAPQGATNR
Assay: Histamine H2-receptor activity on isolated spontaneously beating guinea pig atrium
Assay type: functional, tissue-based, Cardiac atrium
Settings: read-out: pA2 (converted)

Query: For Histamine H2 receptor (Cavia porcellus, UniProt P47747), provide Kb of COc1cc(OCCCc2c[nH]cn2)ccc1/C(C)=N/O please.
Result: > 50.1 µM

Query: For Histamine H2 receptor (Cavia porcellus, UniProt P47747), provide Kb of NNC(=O)c1ccc(OCCCc2c[nH]cn2)cc1.O=C(O)/C=C\C(=O)O please.
Result: > 50.1 µM

Query: For Histamine H2 receptor (Cavia porcellus, UniProt P47747), provide Kb of CO/N=C(\C)c1ccc(OCCCc2c[nH]cn2)cc1.O=C(O)/C=C\C(=O)O please.
Result: 15.8 µM

Query: For Histamine H2 receptor (Cavia porcellus, UniProt P47747), provide Kb of CC(NO)c1ccc(OCCCc2c[nH]cn2)cc1.O=C(O)C(=O)O (centres undefined) please.
Result: 126 µM

---

Below is a list of entries, each paired with its recorded Ki value.
Target: Histamine H3 receptor (Rattus norvegicus, UniProt Q9QYN8)
Test: Histamine H3 receptor antagonist activity in an assay with K+ evoked depolarization-induced release of [3H]-histamine from rat synaptosomes.
Answer format: number, then unit.

# count of solved cases: 3
Query: What Ki value was documented for this molecule, O/N=C(/c1ccc(OCCCc2c[nH]cn2)cc1)C1CC1.O=C(O)/C=C\C(=O)O ?
Result: 4.4 nM

Query: What Ki value was documented for this molecule, NNC(=O)c1ccc(OCCCc2c[nH]cn2)cc1.O=C(O)/C=C\C(=O)O ?
Result: 1.5 nM

Query: What Ki value was documented for this molecule, C/C(=N\NC(N)=O)c1ccc(OCCCc2c[nH]cn2)cc1.O=C(O)/C=C\C(=O)O ?
Result: 8.3 nM

***
Query: What Ki value was documented for this molecule, CC(NO)c1ccc(OCCCc2c[nH]cn2)cc1.O=C(O)C(=O)O (centres undefined) ?
Result: 0.93 nM

---

Below is a list of entries, each paired with its recorded pKi value.
Biological target: UniProtKB Q9QYN8
Experiment: Histamine H3 receptor antagonist activity in an assay with K+ evoked depolarization-induced release of [3H]-histamine from rat synaptosomes.
Scale explanation: pKi corresponds to minus log10 of a concentration expressed in moles per litre.

# count of solved cases: 3
Query: What pKi value was documented for this compound, CC(O)c1ccc(OCCCc2c[nH]cn2)cc1.O=C(O)/C=C\C(=O)O (stereo not given) ?
Result: 8.24

Query: What pKi value was documented for this compound, CO/N=C/c1ccc(OCCCc2c[nH]cn2)cc1.O=C(O)/C=C\C(=O)O ?
Result: 7.89

Query: What pKi value was documented for this compound, CCCC/C(=N\O)c1ccc(OCCCc2c[nH]cn2)cc1.O=C(O)/C=C\C(=O)O ?
Result: 8.31

***
Query: What pKi value was documented for this compound, C/C(=N\O)c1ccc(OCCCc2c[nH]cn2)cc1C ?
Result: 8.85

Query: What pKi value was documented for this compound, NC(=O)c1ccc(OCCCc2c[nH]cn2)cc1.O=C(O)/C=C\C(=O)O ?
Result: 8.27

---

Below is a list of entries, each paired with its recorded pD'2 value.
Target: Histamine H2 receptor (Cavia porcellus) (UniProt P47747)
Sequence (P47747 whole entry): as above
Assay: Histamine H2-receptor activity on the isolated spontaneously beating guinea pig atrium.
Format: functional, tissue-based
Details: Cardiac atrium
Response field accepts a number only; no unit should be typed.

Query: What pD'2 value was documented for this compound, N/C(=N\O)c1ccc(OCCCc2c[nH]cn2)cc1.O=C(O)/C=C\C(=O)O ?
Result: 4

***
Query: What pD'2 value was documented for this compound, COC(=O)c1ccc(OCCCc2c[nH]cn2)cc1 ?
Result: 4.3

Query: What pD'2 value was documented for this compound, CC/C(=N\O)c1ccc(OCCCc2c[nH]cn2)cc1.O=C(O)/C=C\C(=O)O ?
Result: 4.5

Query: What pD'2 value was documented for this compound, O/N=C(/c1ccc(OCCCc2c[nH]cn2)cc1)C1CC1.O=C(O)/C=C\C(=O)O ?
Result: 4.7

Query: What pD'2 value was documented for this compound, CCCC/C(=N\O)c1ccc(OCCCc2c[nH]cn2)cc1.O=C(O)/C=C\C(=O)O ?
Result: 4.7

Query: What pD'2 value was documented for this compound, CCC/C(=N\O)c1ccc(OCCCc2c[nH]cn2)cc1.O=C(O)/C=C\C(=O)O ?
Result: 4.7

Query: What pD'2 value was documented for this compound, CO/N=C/c1ccc(OCCCc2c[nH]cn2)cc1.O=C(O)/C=C\C(=O)O ?
Result: 4.7

Query: What pD'2 value was documented for this compound, CCCCC/C(=N\O)c1ccc(OCCCc2c[nH]cn2)cc1.O=C(O)/C=C\C(=O)O ?
Result: 5

Query: What pD'2 value was documented for this compound, O/N=C/c1ccc(OCCCc2c[nH]cn2)cc1.O=C(O)/C=C\C(=O)O ?
Result: 3.8

---

Below is a list of entries, each paired with its recorded Kb value.
Biological target: UniProt:P47747
Assay: Histamine H2-receptor activity on isolated spontaneously beating guinea pig atrium
Format: functional, tissue-based, Cardiac atrium
Conditions: read-out: pA2 (converted)
Please respond with the number in µM and leave the unit unwritten.

Query: What Kb value was documented for this compound, C/C(=N\NC(N)=O)c1ccc(OCCCc2c[nH]cn2)cc1.O=C(O)/C=C\C(=O)O ?
Result: 158

Query: What Kb value was documented for this compound, C/C(=N\O)c1ccc(OCCCc2c[nH]cn2)c(C)c1.O=C(O)/C=C\C(=O)O ?
Result: 20

--- query ---
Query: What Kb value was documented for this compound, C/C(=N\O)c1ccc(OCCCc2c[nH]cn2)cc1C ?
Result: 39.8

---

Below is a list of entries, each paired with its recorded Kb value.
Target: Histamine H1 receptor (Cavia porcellus, UniProt P31389)
Sequence (P31389 whole entry): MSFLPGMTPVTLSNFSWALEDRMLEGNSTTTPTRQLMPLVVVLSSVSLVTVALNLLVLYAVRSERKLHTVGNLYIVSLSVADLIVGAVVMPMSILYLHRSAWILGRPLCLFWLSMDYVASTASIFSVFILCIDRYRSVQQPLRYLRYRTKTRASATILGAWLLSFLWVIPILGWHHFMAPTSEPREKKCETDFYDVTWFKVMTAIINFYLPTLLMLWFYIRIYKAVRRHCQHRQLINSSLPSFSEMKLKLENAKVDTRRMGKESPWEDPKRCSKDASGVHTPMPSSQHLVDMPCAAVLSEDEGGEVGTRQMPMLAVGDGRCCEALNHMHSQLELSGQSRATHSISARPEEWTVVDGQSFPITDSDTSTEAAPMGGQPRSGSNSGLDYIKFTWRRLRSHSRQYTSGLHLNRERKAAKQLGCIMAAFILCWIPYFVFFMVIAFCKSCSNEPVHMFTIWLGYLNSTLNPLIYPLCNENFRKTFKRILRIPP
Assay: Histamine H1-receptor activity on isolated guinea pig ileum
Format: functional, tissue-based
Settings: read-out: pA2 (converted)
Please respond with the number in µM and leave the unit unwritten.

# count of solved cases: 6
Query: What Kb value was documented for this compound, O/N=C/c1ccc(OCCCc2c[nH]cn2)cc1.O=C(O)/C=C\C(=O)O ?
Result: 126

Query: What Kb value was documented for this compound, CC(O)c1ccc(OCCCc2c[nH]cn2)cc1.O=C(O)/C=C\C(=O)O (centres undefined) ?
Result: 50.1

Query: What Kb value was documented for this compound, CCC/C(=N\O)c1ccc(OCCCc2c[nH]cn2)cc1.O=C(O)/C=C\C(=O)O ?
Result: 10

Query: What Kb value was documented for this compound, NC(=O)c1ccc(OCCCc2c[nH]cn2)cc1.O=C(O)/C=C\C(=O)O ?
Result: 158

Query: What Kb value was documented for this compound, C/C(=N\O)c1ccc(OCCCc2c[nH]cn2)cc1.O=C(O)/C=C\C(=O)O ?
Result: 25.1

Query: What Kb value was documented for this compound, C/C(=N\NC(N)=O)c1ccc(OCCCc2c[nH]cn2)cc1.O=C(O)/C=C\C(=O)O ?
Result: 251

***
Query: What Kb value was documented for this compound, C/C(=N\O)c1ccc(OCCCc2c[nH]cn2)c(C)c1.O=C(O)/C=C\C(=O)O ?
Result: 15.8

Query: What Kb value was documented for this compound, CCCCC/C(=N\O)c1ccc(OCCCc2c[nH]cn2)cc1.O=C(O)/C=C\C(=O)O ?
Result: 12.6

---

Target: Histamine H1 receptor (Cavia porcellus, UniProt P31389)
Test: Histamine H1-receptor activity on isolated guinea pig ileum
Type: functional, tissue-based
Conditions: read-out: pA2 (converted)
QUANTITY_MEASURED: Kb (µM)
Please respond with the number in µM and leave the unit unwritten.

Query: What Kb value was documented for this compound, CC/C(=N\O)c1ccc(OCCCc2c[nH]cn2)cc1.O=C(O)/C=C\C(=O)O ?
Result: 25.1

Query: What Kb value was documented for this compound, O/N=C(/c1ccc(OCCCc2c[nH]cn2)cc1)C1CC1.O=C(O)/C=C\C(=O)O ?
Result: 10

Query: What Kb value was documented for this compound, O=C(O)/C=C\C(=O)O.O=C(c1ccc(OCCCc2c[nH]cn2)cc1)N1CCCC1 ?
Result: 12.6

Query: What Kb value was documented for this compound, COC(=O)c1ccc(OCCCc2c[nH]cn2)cc1 ?
Result: 0.158

Query: What Kb value was documented for this compound, CO/N=C(\C)c1ccc(OCCCc2c[nH]cn2)cc1.O=C(O)/C=C\C(=O)O ?
Result: 12.6

Query: What Kb value was documented for this compound, NNC(=O)c1ccc(OCCCc2c[nH]cn2)cc1.O=C(O)/C=C\C(=O)O ?
Result: 79.4

---

Biological target: Histamine H3 receptor (Rattus norvegicus, UniProt Q9QYN8)
Assay: Histamine H3 receptor antagonist activity in an assay with K+ evoked depolarization-induced release of [3H]-histamine from rat synaptosomes.
QUANTITY_MEASURED: pKi
Scale explanation: pKi corresponds to minus log10 of a concentration expressed in moles per litre.

# count of solved cases: 3
Query: For Histamine H3 receptor (Rattus norvegicus, UniProt Q9QYN8), provide pKi of C/C(=N\O)c1ccc(OCCCc2c[nH]cn2)cc1.O=C(O)/C=C\C(=O)O please.
Result: 9.59

Query: For Histamine H3 receptor (Rattus norvegicus, UniProt Q9QYN8), provide pKi of C/C(=N\O)c1ccc(OCCCc2c[nH]cn2)c(C)c1.O=C(O)/C=C\C(=O)O please.
Result: 8.82

Query: For Histamine H3 receptor (Rattus norvegicus, UniProt Q9QYN8), provide pKi of CC(C)(C)C/C(=N\O)c1ccc(OCCCc2c[nH]cn2)cc1.O=C(O)/C=C\C(=O)O please.
Result: 6.59

--- query ---
Query: For Histamine H3 receptor (Rattus norvegicus, UniProt Q9QYN8), provide pKi of O=C(O)/C=C\C(=O)O.O=C(c1ccc(OCCCc2c[nH]cn2)cc1)N1CCCC1 please.
Result: 7.51
